IC50 at 48 h reference
# RUN DESCRIPTION: Cytotoxicity against human HepG2 cells assessed as reduction in cell viability incubated for 48 hrs by sulforhodamine B assay
# Type: toxicity, cell-based

- SMILES REPR: "CC(=O)O[C@H]1C(=O)[C@@]2(C)[C@H]([C@H](OC(=O)c3ccccc3)[C@]3(O)C[C@H](OC(=O)[C@H](O)[C@@H](NC(=O)c4ccccc4)c4ccccc4)C(C)=C1C3(C)C)[C@]1(OC(C)=O)CO[C@@H]1C[C@@H]2O"
  UNIT TEXT: "µg/mL"
  BOUND SIGN: "="
  IC50 at 48 h: 0.016
- SMILES REPR: "CC1=C[C@H]2C[C@@H](C)CC[C@]2(C)[C@@](C)(C(=O)C2=C(O)[C@@H](CO)N(C)C2=O)[C@H]1/C=C/C=C/C=C/C[C@@H](C)O"
  UNIT TEXT: "µg/mL"
  BOUND SIGN: ">"
  IC50 at 48 h: 64

* * *

// reported IC50 at 48 h for each item listed
# RUN DESCRIPTION: Cytotoxicity against human DLD-1 cells assessed as reduction in cell viability incubated for 48 hrs by sulforhodamine B assay
# Assay type: toxicity, cell-based
ENDPOINT LABEL: IC50 at 48 h (µg/mL)

- SMILES REPR: "CC1=C[C@H]2C[C@@H](C)CC[C@]2(C)[C@@](C)(C(=O)C2=C(O)[C@@H](CO)N(C)C2=O)[C@H]1/C=C/C=C/C=C/C[C@@H](C)O"
  ENDPOINT LABEL: "IC50 at 48 h"
  UNIT TEXT: "µg/mL"
  BOUND SIGN: ">"
  TEST VALUE: 64
- SMILES REPR: "CC(=O)O[C@H]1C(=O)[C@@]2(C)[C@H]([C@H](OC(=O)c3ccccc3)[C@]3(O)C[C@H](OC(=O)[C@H](O)[C@@H](NC(=O)c4ccccc4)c4ccccc4)C(C)=C1C3(C)C)[C@]1(OC(C)=O)CO[C@@H]1C[C@@H]2O"
  ENDPOINT LABEL: "IC50 at 48 h"
  UNIT TEXT: "µg/mL"
  BOUND SIGN: "="
  TEST VALUE: 0.031

* * *

# RUN DESCRIPTION: Cytotoxicity against human Hep3B cells assessed as reduction in cell viability incubated for 48 hrs by sulforhodamine B assay
# Assay type: toxicity, cell-based, Hep 3B2

- SMILES REPR: "CC1=C[C@H]2C[C@@H](C)CC[C@]2(C)[C@@](C)(C(=O)C2=C(O)[C@@H](CO)N(C)C2=O)[C@H]1/C=C/C=C/C=C/C[C@@H](C)O"
  IC50 at 48 h: "> 64 µg/mL"

* * *

# Test system: Mycobacterium tuberculosis
# RUN DESCRIPTION: Antitubercular activity against Mycobacterium tuberculosis H37Rv ATCC 27294 assessed as reduction in microbial growth incubated for 6 days under aerobic condition by microplate Alamar Blue assay
# Assay type: functional
# RECORDED CONDITIONS: H37Rv ATCC 27294, 144 h, time 6 day
In this section we review reported MIC values for a set of compounds.

- SMILES REPR: "CC1=C[C@H]2C[C@@H](C)CC[C@@H]2[C@@](C)(C(=O)C2=C(O)[C@H](CO)N(C)C2=O)[C@H]1/C=C/C=C/C=C/C[C@@H](C)O"
  EXPERIMENTAL SYSTEM: "Mycobacterium tuberculosis"
  MIC [µg/mL]: 1
- SMILES REPR: "CC1=C[C@H]2C[C@@H](C)CC[C@]2(C)[C@@](C)(C(=O)C2=C(O)[C@@H](CO)N(C)C2=O)[C@H]1/C=C/C=C/C=C/C[C@@H](C)O"
  EXPERIMENTAL SYSTEM: "Mycobacterium tuberculosis"
  MIC [µg/mL]: 0.016
- SMILES REPR: "CC1=C[C@@H]2C[C@@H](C)CC[C@]2(C)[C@@](C)(C(=O)C2=C(O)[C@@H](CO)NC2=O)[C@H]1/C=C/C=C/C=C/C[C@@H](C)O"
  EXPERIMENTAL SYSTEM: "Mycobacterium tuberculosis"
  MIC [µg/mL]: 2
- SMILES REPR: "CO[C@H]1/C=C/O[C@@]2(C)Oc3c(C)c(O)c4c(O)c(c(/C=N/N5CCN(C)CC5)c(O)c4c3C2=O)NC(=O)/C(C)=C\\C=C\\[C@H](C)[C@H](O)[C@@H](C)[C@@H](O)[C@@H](C)[C@H](OC(C)=O)[C@@H]1C"
  EXPERIMENTAL SYSTEM: "Mycobacterium tuberculosis"
  MIC [µg/mL]: 0.25
- SMILES REPR: "CC1=C[C@H]2C[C@@H](C)CC[C@]2(C)[C@@](C)(C(=O)C2=C(O)[C@@H](CO)NC2=O)[C@H]1/C=C/C=C/C=C/C[C@@H](C)O"
  EXPERIMENTAL SYSTEM: "Mycobacterium tuberculosis"
  MIC [µg/mL]: 0.5
